- System: Staphylococcus aureus
- measurementProtocol: Antibacterial activity against linezolid-resistant Staphylococcus aureus O-128
- Format: functional
Reported MIC is given for each of the following molecules.
Answer with a number only, understood to be in µg/mL.

Look over these answered cases.
O=C1NC(=O)C2(Cc3cc(-c4ccc(N5C[C@H](CO)OC5=O)cc4F)ccc3N3CCCCC32)C(=O)N1 (some centres not stated)
16
O=C1NC(=O)C2(Cc3cc(-c4ccc(N5C[C@H](CNC(=O)C(F)(F)F)OC5=O)cc4F)ccc3N3CCCC32)C(=O)N1 (some centres not stated)
32
CS(=O)(=O)NC[C@H]1CN(c2ccc(-c3ccc4c(c3)CC3(C(=O)NC(=O)NC3=O)C3CCCN43)c(F)c2)C(=O)O1 (some centres not stated)
32
COC(=O)NC[C@H]1CN(c2ccc(-c3ccc4c(c3)CC3(C(=O)NC(=O)NC3=O)C3CCCN43)c(F)c2)C(=O)O1 (some centres not stated)
16

Kindly consider the entry below.
Please report the recorded MIC for CCOC(=O)NC[C@H]1CN(c2ccc(-c3ccc4c(c3)CC3(C(=O)NC(=O)NC3=O)C3CCCN43)c(F)c2)C(=O)O1 (some centres not stated) .
32

====

- System: Staphylococcus aureus
- measurementProtocol: Antibacterial activity against Staphylococcus aureus ATCC 29213
- Format: functional
Property: MIC; scope: individual molecules
Write the answer as a number in µg/mL, unit excluded.

Worked examples follow.
O=C1NC(=O)C2(Cc3cc(-c4ccc(N5C[C@H](CO)OC5=O)cc4F)ccc3N3CCCC32)C(=O)N1 (stereo partly drawn)
4
CCC(=O)NC[C@H]1CN(c2ccc(-c3ccc4c(c3)CC3(C(=O)NC(=O)NC3=O)C3COCCN43)c(F)c2)C(=O)O1 (stereo partly drawn)
8

Fill in: MIC of CC(=O)NC[C@H]1CN(c2ccc(-c3ccc4c(c3)CC3(C(=O)NC(=O)NC3=O)C3COCCN43)c(F)c2)C(=O)O1 (stereo partly drawn) is ___
4

Form field: reported MIC of CCOC(=O)NC[C@H]1CN(c2ccc(-c3ccc4c(c3)CC3(C(=O)NC(=O)NC3=O)C3COCCN43)c(F)c2)C(=O)O1 (stereo partly drawn)
16

Which MIC value belongs to CC(=O)NC[C@H]1CN(c2ccc(-c3ccc4c(c3)CC3(C(=O)NC(=O)NC3=O)C3CCCN43)c(F)c2)C(=O)O1 (stereo partly drawn) ?
2

====

Each record here notes measured MIC.
- Tested on: Enterococcus faecium
- measurementProtocol: Antibacterial activity against Enterococcus faecium NLNZ 572
- Type: functional
I only need the number, in µg/mL, no unit after it.

COC(=O)NC[C@H]1CN(c2ccc(-c3ccc4c(c3)CC3(C(=O)NC(=O)NC3=O)C3CCCN43)c(F)c2)C(=O)O1 (some centres undefined)
32
O=C1NC(=O)C2(Cc3cc(-c4ccc(N5C[C@H](CO)OC5=O)cc4F)ccc3N3CCCCC32)C(=O)N1 (some centres undefined)
4
CC(=O)NC[C@H]1CN(c2ccc(-c3ccc4c(c3)CC3(C(=O)NC(=O)NC3=O)C3CCCN43)c(F)c2)C(=O)O1 (some centres undefined)
4

With those in mind, consider the next compound.
Recorded MIC for CC(=O)NC[C@H]1CN(c2ccc(-c3ccc4c(c3)CC3(C(=O)NC(=O)NC3=O)C3CCCCN43)c(F)c2)C(=O)O1 (some centres undefined) , please?
4

====

- Test system: Staphylococcus aureus
- measurementProtocol: Antibacterial activity against methicillin-resistant Staphylococcus aureus 562
- Assay type: functional
The following compounds are shown together with reported MIC values.
Give the quantity in µg/mL, number only.

Below, 2 compounds whose answers are already recorded.
COC(=O)C1(C(=O)OC)Cc2cc(-c3ccc(N4C[C@H](CNC(C)=O)OC4=O)cc3F)ccc2N2CCOCC21 (some centres undefined)
4
CC(=O)NC[C@H]1CN(c2ccc(-c3ccc4c(c3)CC3(C(=O)NNC3=O)C3CCCN43)c(F)c2)C(=O)O1 (some centres undefined)
8

Name the recorded MIC for CS(=O)(=O)NC[C@H]1CN(c2ccc(-c3ccc4c(c3)CC3(C(=O)NC(=O)NC3=O)C3CCCN43)c(F)c2)C(=O)O1 (some centres undefined) .
8

====

# MIC per record follows
- System: Enterococcus faecalis
- measurementProtocol: Antibacterial activity against linezolid-resistant Enterococcus faecalis ATCC 29212
- Type: functional
Express the result in µg/mL but write the number alone.

Below, 4 compounds whose answers are already recorded.
CC(=O)NC[C@H]1CN(c2ccc(-c3ccc4c(c3)CC3(C(=O)NC(=O)NC3=O)C3CCCCN43)c(F)c2)C(=O)O1 (stereo partly specified)
4
O=C1NC(=O)C2(Cc3cc(-c4ccc(N5C[C@H](CO)OC5=O)cc4F)ccc3N3CCCCC32)C(=O)N1 (stereo partly specified)
2
CC(=O)NC[C@H]1CN(c2ccc(-c3ccc4c(c3)CC3(C(=O)NC(=O)NC3=O)C3CCCN43)c(F)c2)C(=O)O1 (stereo partly specified)
4
CN[C@H](CC(C)C)C(=O)N[C@H]1C(=O)N[C@@H](CC(N)=O)C(=O)N[C@H]2C(=O)N[C@H]3C(=O)N[C@H](C(=O)N[C@H](C(=O)O)c4cc(O)cc(O)c4-c4cc3ccc4O)[C@H](O)c3ccc(c(Cl)c3)Oc3cc2cc(c3O[C@@H]2O[C@H](CO)[C@@H](O)[C@H](O)[C@H]2O[C@H]2C[C@](C)(N)[C@H](O)[C@H](C)O2)Oc2ccc(cc2Cl)[C@H]1O
2

Switching to the query record.
# lookup: MIC of COC(=O)NC[C@H]1CN(c2ccc(-c3ccc4c(c3)CC3(C(=O)NC(=O)NC3=O)C3CCCN43)c(F)c2)C(=O)O1 (stereo partly specified)
16

====

- Test system: Enterococcus faecium
- measurementProtocol: Antibacterial activity against vancomycin-resistant Enterococcus faecium R1
- Type: functional
Reported MIC values follow for various compounds

Record CC(=O)NC[C@H]1CN(c2ccc(-c3ccc4c(c3)CC3(C(=O)NC(=O)NC3=O)C3CCCN43)c(F)c2)C(=O)O1 (stereo not given in full) : what is its MIC with Enterococcus faecium?
2 mg/L

Give MIC (Enterococcus faecium) of the following compound: COC(=O)NC[C@H]1CN(c2ccc(-c3ccc4c(c3)CC3(C(=O)NC(=O)NC3=O)C3CCCN43)c(F)c2)C(=O)O1 (stereo not given in full)
8 mg/L

# value lookup — system Enterococcus faecium, readout MIC, item CC(=O)NC[C@H]1CN(c2ccc(N3CCOCC3)c(F)c2)C(=O)O1 [LINEZOLID]
4 mg/L

Test system Enterococcus faecium; read-out MIC; what value for CC(=O)NC[C@H]1CN(c2ccc(-c3ccc4c(c3)CC3(C(=O)NC(=O)NC3=O)C3CCCCN43)c(F)c2)C(=O)O1 (stereo not given in full) ?
1 mg/L

Checklist item: MIC tested on Enterococcus faecium, entry O=C1NC(=O)C2(Cc3cc(-c4ccc(N5C[C@H](CO)OC5=O)cc4F)ccc3N3CCCCC32)C(=O)N1 (stereo not given in full) , value?
0.25 mg/L

====

Below, each entry is listed with its recorded MIC.
- Test system: Staphylococcus aureus
- measurementProtocol: Antibacterial activity against […] Staphylococcus aureus ATCC 13709 SMITH
- Assay type: functional

Consider the following illustrative entries.
O=C1NC(=O)C2(Cc3cc(-c4ccc(N5C[C@H](CO)OC5=O)cc4F)ccc3N3CCCC32)C(=O)N1 (stereo partly drawn)
32 µg/mL
CC(=O)NC[C@H]1CN(c2ccc3c(c2)CC2(C(=O)NC(=O)NC2=O)C2COCCN32)C(=O)O1 (stereo partly drawn)
> 32 µg/mL
CS(=O)(=O)NC[C@H]1CN(c2ccc(-c3ccc4c(c3)CC3(C(=O)NC(=O)NC3=O)C3COCCN43)c(F)c2)C(=O)O1 (stereo partly drawn)
> 32 µg/mL
COC(=O)NC[C@H]1CN(c2ccc(-c3ccc4c(c3)CC3(C(=O)NC(=O)NC3=O)C3COCCN43)c(F)c2)C(=O)O1 (stereo partly drawn)
> 32 µg/mL
O=C1NC(=O)C2(Cc3cc(-c4ccc(N5C[C@H](CNC(=O)C(F)(F)F)OC5=O)cc4F)ccc3N3CCCC32)C(=O)N1 (stereo partly drawn)
32 µg/mL
CCOC(=O)NC[C@H]1CN(c2ccc(-c3ccc4c(c3)CC3(C(=O)NC(=O)NC3=O)C3COCCN43)c(F)c2)C(=O)O1 (stereo partly drawn)
> 32 µg/mL
COC(=O)C1(C(=O)OC)Cc2cc(-c3ccc(N4C[C@H](CNC(C)=O)OC4=O)cc3F)ccc2N2CCOCC21 (stereo partly drawn)
> 32 µg/mL

Enter reported MIC observed with Staphylococcus aureus for CC(=O)NC[C@H]1CN(c2ccc(-c3ccc4c(c3)CC3(C(=O)NNC3=O)C3CCCN43)c(F)c2)C(=O)O1 (stereo partly drawn)
> 32 µg/mL

====

- System: Staphylococcus aureus
- measurementProtocol: Antibacterial activity against […] Staphylococcus aureus ATCC 13709 SMITH
- Format: functional
quantity: MIC (µg/mL)
Give a bare numeral; the unit µg/mL is implied.

Please report the recorded MIC for O=C1NC(=O)C2(Cc3cc(-c4ccc(N5C[C@H](CO)OC5=O)cc4F)ccc3N3CCOCC32)C(=O)N1 (stereo partly specified) .
32

Record request: MIC value, item CC(=O)NC[C@H]1CN(c2ccc(-c3ccc4c(c3)CC3(C(=O)NC(=O)NC3=O)C3COCCN43)c(F)c2)C(=O)O1 (stereo partly specified)
32

# input compound: CC(=O)NC[C@H]1CN(c2ccc(-c3ccc4c(c3)CC3(C(=O)NC(=O)NC3=O)C3CCCN43)c(F)c2)C(=O)O1 (stereo partly specified) ; wanted: its MIC
16
